- measurement.target: T1, recombinant human IGSF8 extracellular domain tagged by a human Fc region (IGSF8-hFc) (human, UniProt Q969P0 28-579, biotin label in Examples 17, 18 and 28 (site not given))
- T1 construct: also called IGSF8-Fc fusion protein; IGSF8-hFc-biotin; not shown: human Fc region
- T1 sequence: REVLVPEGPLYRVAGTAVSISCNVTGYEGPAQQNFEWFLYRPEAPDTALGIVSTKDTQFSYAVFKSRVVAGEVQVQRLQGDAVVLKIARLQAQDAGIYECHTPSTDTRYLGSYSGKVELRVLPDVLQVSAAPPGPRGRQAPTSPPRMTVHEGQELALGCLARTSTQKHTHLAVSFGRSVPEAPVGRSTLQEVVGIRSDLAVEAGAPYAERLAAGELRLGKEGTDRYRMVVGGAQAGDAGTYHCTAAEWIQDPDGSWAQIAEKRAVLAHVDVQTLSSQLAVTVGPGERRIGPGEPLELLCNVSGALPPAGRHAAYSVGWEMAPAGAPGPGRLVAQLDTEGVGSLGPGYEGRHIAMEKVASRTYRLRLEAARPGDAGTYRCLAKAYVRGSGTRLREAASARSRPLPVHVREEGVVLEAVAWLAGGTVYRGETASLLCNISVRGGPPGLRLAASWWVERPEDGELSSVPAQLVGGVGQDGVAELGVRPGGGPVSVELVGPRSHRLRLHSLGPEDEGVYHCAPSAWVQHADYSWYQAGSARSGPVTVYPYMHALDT
- measurement.description: SPR, Ab captured

binder: L2VL-D93S (antibody, V domains shown) VH: EVQLVESGGGLEQPGGSLRLSCAGSGFTFRDYAMTWVRQAPGKGLEWVSSISGSGGNTYYADSVKGRFTISRDNSKNTLYLQMNSLRAEDTAIYYCARGEYSSGWPSWFDPWGQGTLVTVSS VL: EIVLTQSPSSLSASVGDRVTISCRASRTVGTFLNWYQQRPGKPPQALILGVSILEGGVSSRFSGAGSGTEFSLTISSLQPEDIGTYYCQQSHSVPRTFGQGTKVDLR
Kd, nM: 68

# credit: patent US20230303695A1
